Test system: SNB-75 CNS
Test: NCI tumour cell line growth inhibition, 48 h
Readout: TGI

What value of measured TGI is listed for COC(=O)C(CSSC[C@H](N/C(C)=C/C(C)=O)C(=O)OC)N/C(C)=C/C(C)=O (stereo partly drawn) ? > 100 µM

What value of measured TGI is listed for `C1CN(SSN2CCOCC2)CCO1` ? > 100 µM

What value of measured TGI is listed for `COc1ccc(C(=O)/C=C/c2c(Cl)c3c(c(OC)c2Cl)OCC(=O)N3)cc1` ? 9.71 µM

Others:
What value of measured TGI is listed for `O=C(O)c1nc(-c2ccccc2)[nH]c1C(=O)O` ? 33.6 µM

What value of measured TGI is listed for `Nc1[nH]nc2nc(-c3cccs3)cc(C(F)(F)F)c12` ? > 25 µM

What value of measured TGI is listed for COc1ccc(C(SC2C(O)C(CO)OC2n2ccc(N)nc2=O)(c2ccccc2)c2ccc(OC)cc2)cc1 (stereo not drawn) ? 46.6 µM

What value of measured TGI is listed for `O=C(OCCN=c1c2ccccc2ccc2ccccc12)c1ccc([N+](=O)[O-])cc1` ? > 100 µM

What value of measured TGI is listed for `CS[C@]12C(=O)C[C@@]3(C)[C@@H](CC[C@]3(O)C(=O)CO)[C@@H]1CCC1=CC(=O)CC[C@@]12C` ? > 100 µM

###

TGI reference
Tested on: HOP-92 NSCLC
Test: NCI tumour cell line growth inhibition, 48 h

Look over these answered cases.
What value of measured TGI is listed for `CCOC(=O)c1c(N2CCCC2)ncn(Cc2ccccc2)c1=S` ? > 100 µM

What value of measured TGI is listed for `C[Si](C)(C)c1ccc(-c2sc(-c3ccc([Si](C)(C)C)s3)c3c2C[Si]2(C3)Cc3c(-c4ccc([Si](C)(C)C)s4)sc(-c4ccc([Si](C)(C)C)s4)c3C2)s1` ? > 100 µM

What value of measured TGI is listed for `C/C(Nc1ccc(F)cc1)=C1/CCOC1=O` ? > 100 µM

What value of measured TGI is listed for `Oc1c([Si](c2ccccc2)(c2ccccc2)c2ccccc2)cc2ccccc2c1-c1c(O)c([Si](c2ccccc2)(c2ccccc2)c2ccccc2)cc2ccccc12` ? > 100 µM

Others:
What value of measured TGI is listed for Cc1cn(Cc2cnnn2CC2OC(n3cc(C)c(=O)[nH]c3=O)CC2O)c(=O)[nH]c1=O (stereo not given) ? > 100 µM

###

Test system: NCI/ADR-RES ovarian
Test: NCI tumour cell line growth inhibition, 48 h; in the data active = GI50 below about 0.43 µM; inactive = the rest
Response enum: YES (active), NO (inactive)

// below: answered compounds
Which outcome did this test record for the compound `Cc1c2c(nn1C)CSCc1cc(n(C)n1)CSc1cc(c3ccccc3c1)OCCCc1c(C(=O)O)n(C)c3c-2c(Cl)ccc13` ? NO

Which outcome did this test record for the compound `Cc1cc(N2CCCC2)nc(N(CCNc2ccnc3cc(Cl)ccc23)Cc2ccco2)n1` ? NO

Which outcome did this test record for the compound `CC1(C)[C@@H](OC(N)=O)[C@H]2O[C@H]2[C@]2(CO)[C@H]3CC[C@]4(C)[C@@H](c5ccc(=O)oc5)[C@@H](Cl)C[C@]4(O)C3=CC[C@@H]12` ? YES

Others:
Which outcome did this test record for the compound `C1CN(SSN2CCOCC2)CCO1` ? NO

Which outcome did this test record for the compound COc1ccc(/C=C2\CCCC3=C2NC(N)=NC3c2ccc(OC)c(OC)c2)cc1OC (stereo not drawn) ? NO

###

TGI reference
System: SF-295 CNS
Test: NCI tumour cell line growth inhibition, 48 h

Look over these answered cases.
What value of measured TGI is listed for COc1ccc(OC)c2c1C(=O)C1CC1(Br)C2=O (configuration not stated) ? > 100 µM

What value of measured TGI is listed for `COc1c(Cl)cc(NC(=S)C#N)cc1Cl` ? > 79.9 µM

What value of measured TGI is listed for `COc1cccc(-n2ncc3c(N/N=C/c4ccncc4)ncnc32)c1` ? > 25 µM

What value of measured TGI is listed for CN(C)c1ccc2c(c1)OC(N)=C(C#N)C2c1ccc2c(c1)CCO2 (configuration not stated) ? 1.95 µM

What value of measured TGI is listed for COc1ccc(C2N(NC(=O)c3ccncc3)C(=O)CS2(=O)=O)cc1F (configuration not stated) ? > 100 µM

Others:
What value of measured TGI is listed for CN1c2ccccc2N(C)C23N(C)c4ccccc4N(C)C12N(C)c1ccccc1N3C (configuration not stated) ? > 100 µM

What value of measured TGI is listed for COc1ccc(C(=O)C(c2ccc(OC)cc2)C2(O)C(=O)Nc3c2ccc(Cl)c3C)cc1 (configuration not stated) ? > 100 µM

What value of measured TGI is listed for `CSC1=N/C(=C\c2ccco2)C(=O)N1CN1CCOCC1` ? > 100 µM

What value of measured TGI is listed for Cc1ccc(N2C(=O)C3C=CC(n4[nH]c(=O)n(Cc5ccccc5)c4=O)CC3C2=O)cc1 (configuration not stated) ? > 100 µM

What value of measured TGI is listed for CC(=O)C1C(=O)C(=O)N(c2ccccc2C(C)C)C1=O (configuration not stated) ? > 100 µM

###

Test system: UO-31 renal
Test: NCI tumour cell line growth inhibition, 48 h
Readout: TGI

Any idea what TGI came out for `Cc1cc(Cl)ccc1NC(=O)CC/C(CC(=O)C(C)C)=N\NC(=O)C[n+]1ccccc1` on UO-31 renal? > 100 µM

Any idea what TGI came out for `CCSCCCN(CCCSCC)CCCSCC` on UO-31 renal? > 100 µM

Would you kindly look at the next entry?
Any idea what TGI came out for COc1cc2c(cc1OC)C(Cl)C(c1ccc(Cl)c(Cl)c1)=C2Cl (stereo not drawn) on UO-31 renal? 24.8 µM

###

System: UACC-62 melanoma
Test: NCI tumour cell line growth inhibition, 48 h
Readout: GI50

Look over these answered cases.
What value of measured GI50 is listed for `NC(=S)N/N=C/c1ncccc1N` ? 338 nM

What value of measured GI50 is listed for O=[N+]([O-])c1cccc([As]=[As]c2cccc([N+](=O)[O-])c2)c1 (stereo not drawn) ? 88.5 nM

What value of measured GI50 is listed for `CCN(CC)Cc1ccc(Nc2nccc(-c3cnn4ncccc34)n2)cc1` ? 18.8 nM

What value of measured GI50 is listed for `O=C(Nc1cccc(NC(=O)Nc2cc(C(F)(F)F)ccc2Cl)c1)Nc1cc(C(F)(F)F)ccc1Cl` ? 2350 nM

What value of measured GI50 is listed for `Cc1ccc(S(=O)(=O)Nc2cccc3[nH]c(C(F)(F)F)nc23)cc1` ? 620 nM

Others:
What value of measured GI50 is listed for `O=C1c2ccccc2-c2c1c1ccccc1c(=O)n2CCN1CCOCC1` ? 29400 nM

What value of measured GI50 is listed for `CCOc1ccccc1N=Nc1c(C)[nH]n(-c2nc(-c3ccccc3)cs2)c1=O` ? 35600 nM

What value of measured GI50 is listed for `O=C(Nc1ccc(Cl)cc1)Nc1ccc(Nc2nncc3ccccc23)cc1` ? 958 nM

###

System: NCI-H460 lung
Test: NCI tumour cell line growth inhibition, 48 h
Readout: TGI

Look over these answered cases.
What value of measured TGI is listed for `Cc1ccc(S(=O)(=O)Nc2cccc3[nH]c(C(F)(F)F)nc23)cc1` ? > 38.4 µM

What value of measured TGI is listed for `COc1cc(/C=C2/C[C@H]3[C@@H]4CC=C5C[C@@H](OC(C)=O)CC[C@]5(C)[C@H]4CC[C@]3(C)NC2=O)cc(OC)c1OC` ? > 100 µM

What value of measured TGI is listed for `CCc1ccc(NC(=O)COC(=O)c2cc([N+](=O)[O-])ccc2Sc2nnnn2C)cc1` ? 33.3 µM

What value of measured TGI is listed for `O=C(Nc1ccc(Cl)c(Cl)c1)O/N=C\c1c(Cl)ccc([N+](=O)[O-])c1Cl` ? 7.68 µM

Others:
What value of measured TGI is listed for `CC(C)(O)CC(=O)NCCn1ccc2ncnc(Nc3ccc(Oc4cccc(C(F)(F)F)c4)c(Cl)c3)c21` ? > 10 µM

What value of measured TGI is listed for `COc1ccc(-n2c(=O)n(C)c(=O)n2-c2ccc(OC)cc2)cc1` ? > 100 µM

###

Tested on: 786-0 renal
Test: NCI tumour cell line growth inhibition, 48 h
TGI reference

Look over these answered cases.
What value of measured TGI is listed for `COc1c(Cl)cc(NC(=S)C#N)cc1Cl` ? 88.2 µM

What value of measured TGI is listed for `COC(=O)c1c(O)ccc2c1c1c(n2Cc2cccc(C)c2)C(=O)c2ccccc2C1=O` ? 25.8 µM

Others:
What value of measured TGI is listed for `O=C(Nc1nc2ccccc2s1)c1cc([N+](=O)[O-])ccc1Cl` ? > 58.6 µM

What value of measured TGI is listed for `CN(C(=O)c1ccco1)C(=S)N1CCN(c2ccccc2)CC1` ? > 100 µM

What value of measured TGI is listed for `CC1(C)[C@H]2CC[C@]1(C)[C@H](OC(=O)NNC(=O)O[C@@H]1C[C@@H]3CC[C@@]1(C)C3(C)C)C2` ? 50.3 µM

What value of measured TGI is listed for `CCOC(=O)c1cnc2oc3ccc(O)cc3c2c1-c1ccccc1` ? > 100 µM

Data origin, for the record: PubChem BioAssay (NCI)
